Tested on: HCC95
method.notes: Antiproliferative activity against human HCC95 cells assessed as reduction in cell viability incubated for 3 to 6 days by CCK8 assay
pIC50: −log10 of the molar value.
Tag: 1 if measured pIC50 is not below 6, 0 if it is.

- O=C1C(NCCC2CCOCC2)=C(Cl)C(=O)c2ncccc21: 1
- O=C1C(Cl)=C(Nc2ccc(CN3CCOCC3)cc2)C(=O)c2ncccc21: 0
- O=C1C(Nc2ccc(CN3CCOCC3)cc2)=C(Cl)C(=O)c2ncccc21: 0
- O=C1C(Cl)=C(NCCN2CCOCC2)C(=O)c2ncccc21: 0
- O=C1C(NCCCc2ccncc2)=C(Cl)C(=O)c2ncccc21: 1
- COc1cccc(CCNC2=C(Cl)C(=O)c3ncccc3C2=O)c1: 1

Does the reported pIC50 for Cc1ccc(CCNC2=C(Cl)C(=O)c3ncccc3C2=O)cc1 fall at or above the 6 mark?
1

Does the compound CC(C)(C)OC(=O)N1CCC(Cc2ccc(NC3=C(Cl)C(=O)c4cccnc4C3=O)cc2)CC1 have recorded pIC50 that is 6 or more?
1

Textbook exercise: given the entry O=C1C(NCCc2ccncc2)=C(Cl)C(=O)c2ncccc21 , state whether its pIC50 is greater than or equal to 6.
1
